B1: IQUB (parent)
chain: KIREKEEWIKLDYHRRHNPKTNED

Variants of: B1
test_description: protein stability index of a GFP-peptide fusion (GPS, HEK-293T) (PSI 1-6); higher = more stable;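 note: lentivirally expressed fusions sorted by FACS into six bins by GFP to DsRed ratio, PSI derived from sequencing read proportions per bin multiplied by bin number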
measurement_setup: c terminus: a fixed tail appended
# reported protein stability index; entries follow
measured_quantity: protein stability index

>>> endpoint_result("KIREKEEWIKLDSHRRHNPKTNED [Y13S]")
5.11
>>> endpoint_result("KIRCKEEWIKLDYHRRHNPKTNED [E4C]")
3.71
>>> endpoint_result("KIREWEEWIKLDYHRRHNPKTNED [K5W]")
3.74
>>> endpoint_result("KIREKEEWIKLDYHRRHNPKENED [T21E]")
4.6
>>> endpoint_result("KIREKEEWHKLDYHRRHNPKTNED [I9H]")
4.45
>>> endpoint_result("KIREKEWWIKLDYHRRHNPKTNED [E7W]")
3.46
>>> endpoint_result("KIREKEEWIMLDYHRRHNPKTNED [K10M]")
4.67
>>> endpoint_result("KIREKEEWIKLDYERRHNPKTNED [H14E]")
3.72
>>> endpoint_result("KIREREEWIKLDYHRRHNPKTNED [K5R]")
4.64
>>> endpoint_result("KIREKEAWIKLDYHRRHNPKTNED [E7A]")
4.74
>>> endpoint_result("KIPEKEEWIKLDYHRRHNPKTNED [R3P]")
4.97
>>> endpoint_result("KIREKEEWIKLDYHRKHNPKTNED [R16K]")
3.6
>>> endpoint_result("KIREKEEWIKLDYHRRHNKKTNED [P19K]")
4.95
>>> endpoint_result("KIREKEEWIKLDYHRRCNPKTNED [H17C]")
4.16
>>> endpoint_result("KIREKEEWIKLDYHPRHNPKTNED [R15P]")
4.17
>>> endpoint_result("KIREKEEWIGLDYHRRHNPKTNED [K10G]")
4.9
>>> endpoint_result("KIREKEEWIFLDYHRRHNPKTNED [K10F]")
4.68
>>> endpoint_result("KIREKEEWIKLDYHRRHNPKTNEG [D24G]")
3.72
>>> endpoint_result("QIREKEEWIKLDYHRRHNPKTNED [K1Q]")
4.96
>>> endpoint_result("KSREKEEWIKLDYHRRHNPKTNED [I2S]")
5.09
>>> endpoint_result("KIREKEEWIKPDYHRRHNPKTNED [L11P]")
4.78
>>> endpoint_result("KIREKEEWIKLDYHRRHNPKTNMD [E23M]")
4.17
>>> endpoint_result("KIREKEEWIKLDYHRRHNPKTNQD [E23Q]")
4.06
>>> endpoint_result("KIREKEEWIKADYHRRHNPKTNED [L11A]")
4.77
>>> endpoint_result("KIREKEEWIKLDYHRRHNPKTNEN [D24N]")
4.32
>>> endpoint_result("FIREKEEWIKLDYHRRHNPKTNED [K1F]")
2.67
>>> endpoint_result("KIREKEEWIKLDYHRRHNPKTNEF [D24F]")
3.27
>>> endpoint_result("KIREKEEWIKLDYRRRHNPKTNED [H14R]")
4.58
>>> endpoint_result("CIREKEEWIKLDYHRRHNPKTNED [K1C]")
4.07
>>> endpoint_result("KIREKEEWIKLDYHMRHNPKTNED [R15M]")
4.3
>>> endpoint_result("KIREKEEWIKEDYHRRHNPKTNED [L11E]")
4.32
>>> endpoint_result("KIREDEEWIKLDYHRRHNPKTNED [K5D]")
4.51
>>> endpoint_result("KIIEKEEWIKLDYHRRHNPKTNED [R3I]")
4.35
>>> endpoint_result("KIREKLEWIKLDYHRRHNPKTNED [E6L]")
2.7
>>> endpoint_result("KIREKEEWIKLDYHRRHNMKTNED [P19M]")
4.71
>>> endpoint_result("KIREKEEWIKLDYHRGHNPKTNED [R16G]")
4.74
>>> endpoint_result("KIREKEEWIKLNYHRRHNPKTNED [D12N]")
3.92
>>> endpoint_result("KIRDKEEWIKLDYHRRHNPKTNED [E4D]")
4.48
>>> endpoint_result("KIREKEEWIKLDKHRRHNPKTNED [Y13K]")
5.3
>>> endpoint_result("KIREKEEWIKIDYHRRHNPKTNED [L11I]")
3.78
>>> endpoint_result("KIRLKEEWIKLDYHRRHNPKTNED [E4L]")
3.81
>>> endpoint_result("KIREKEEWIKLDYHRRHQPKTNED [N18Q]")
3.97
>>> endpoint_result("KIREKEEWIKLDYHRRHNPITNED [K20I]")
4.37
>>> endpoint_result("KIQEKEEWIKLDYHRRHNPKTNED [R3Q]")
4.6
>>> endpoint_result("KIREKEEWIKLDYHRRHNPKKNED [T21K]")
5.05
>>> endpoint_result("KIREKEEWIKLDYHRVHNPKTNED [R16V]")
3.62
